Test: activity coefficient (dimensionless); of the first substance listed, at infinite dilution; xn = mol fraction of the nth substance listed
Settings: 338.15 K; 101 kPa; Liquid; Chromatography; x1 = 0
Recorded measurements of activity coefficient, one per entry
Provide a numeric answer; units are not to be included.

These solved cases illustrate the format of a correct answer.
CCOCC [diethyl ether] + CCCCCCOCn1cc[n+](COCCCCCC)c1.O=S(=O)([N-]S(=O)(=O)C(F)(F)F)C(F)(F)F : 0.867
C=CCCCCCC [oct-1-ene] + CCCCCCOCn1cc[n+](C)c1.O=S(=O)([N-]S(=O)(=O)C(F)(F)F)C(F)(F)F : 6.89
C1CCCCC1 [cyclohexane] + CCCCCCOCn1cc[n+](C)c1.O=S(=O)([N-]S(=O)(=O)C(F)(F)F)C(F)(F)F : 4.43

Attention now shifts to the item below.
Query :: Bench note: what activity coefficient did CCc1ccccc1 [ethylbenzene] + CCCCCCOCn1cc[n+](C)c1.O=S(=O)([N-]S(=O)(=O)C(F)(F)F)C(F)(F)F show?
Result :: 1.5

====

Assay: activity coefficient (dimensionless); of the first substance listed, at infinite dilution; xn = mol fraction of the nth substance listed
Details: 338.15 K; 101 kPa; Liquid; Chromatography; x1 = 0
activity coefficient class ranges: low (below 1), mid (1 to below 2), high (2 or more)

Solved entries (count: 5):
C=CCCCC [hex-1-ene] + CCCCCCOCn1cc[n+](COCCCCCC)c1.O=S(=O)([N-]S(=O)(=O)C(F)(F)F)C(F)(F)F : high
C1CCCC1 [cyclopentane] + CCCCCCOCn1cc[n+](C)c1.O=S(=O)([N-]S(=O)(=O)C(F)(F)F)C(F)(F)F : high
CCc1ccccc1 [ethylbenzene] + CCCCCCOCn1cc[n+](COCCCCCC)c1.O=S(=O)([N-]S(=O)(=O)C(F)(F)F)C(F)(F)F : low
CCCCCCCC [octane] + CCCCCCOCn1cc[n+](COCCCCCC)c1.O=S(=O)([N-]S(=O)(=O)C(F)(F)F)C(F)(F)F : high
C#CCCCCC [1-heptyne] + CCCCCCOCn1cc[n+](COCCCCCC)c1.O=S(=O)([N-]S(=O)(=O)C(F)(F)F)C(F)(F)F : mid

Query :: Looking at Cc1ccccc1 [toluene] + CCCCCCOCn1cc[n+](C)c1.O=S(=O)([N-]S(=O)(=O)C(F)(F)F)C(F)(F)F , which class would you pick?
Result :: mid

Query :: Looking at C#CCCC [1-pentyne] + CCCCCCOCn1cc[n+](C)c1.O=S(=O)([N-]S(=O)(=O)C(F)(F)F)C(F)(F)F , which class would you pick?
Result :: mid

Query :: Looking at CCCCCCCCC [nonane] + CCCCCCOCn1cc[n+](COCCCCCC)c1.O=S(=O)([N-]S(=O)(=O)C(F)(F)F)C(F)(F)F , which class would you pick?
Result :: high

Query :: Looking at Cc1cccc(C)c1 [1,3-dimethylbenzene] + CCCCCCOCn1cc[n+](C)c1.O=S(=O)([N-]S(=O)(=O)C(F)(F)F)C(F)(F)F , which class would you pick?
Result :: mid

Query :: Looking at c1ccsc1 [thiophene] + CCCCCCOCn1cc[n+](COCCCCCC)c1.O=S(=O)([N-]S(=O)(=O)C(F)(F)F)C(F)(F)F , which class would you pick?
Result :: low

Query :: Looking at CCCCCCC [heptane] + CCCCCCOCn1cc[n+](COCCCCCC)c1.O=S(=O)([N-]S(=O)(=O)C(F)(F)F)C(F)(F)F , which class would you pick?
Result :: high

Query :: Looking at Cc1ccccc1 [toluene] + CCCCCCOCn1cc[n+](COCCCCCC)c1.O=S(=O)([N-]S(=O)(=O)C(F)(F)F)C(F)(F)F , which class would you pick?
Result :: low

Query :: Looking at CCO [ethanol] + CCCCCCOCn1cc[n+](COCCCCCC)c1.O=S(=O)([N-]S(=O)(=O)C(F)(F)F)C(F)(F)F , which class would you pick?
Result :: low

====

Assay: activity coefficient (dimensionless); of the first substance listed, at infinite dilution; xn = mol fraction of the nth substance listed
Details: 318.15 K; 101 kPa; Liquid; Chromatography; x1 = 0
activity coefficient class ranges: low band (below 1), middle band (1 to below 3), high band (3 or more)

CCCCO [butan-1-ol] + CCCCCCOCn1cc[n+](COCCCCCC)c1.O=S(=O)([N-]S(=O)(=O)C(F)(F)F)C(F)(F)F : middle band
CC(C)=O [acetone] + CCCCCCOCn1cc[n+](COCCCCCC)c1.O=S(=O)([N-]S(=O)(=O)C(F)(F)F)C(F)(F)F : low band
C1CCCCCC1 [cycloheptane] + CCCCCCOCn1cc[n+](C)c1.O=S(=O)([N-]S(=O)(=O)C(F)(F)F)C(F)(F)F : high band

Query :: Looking at CCc1ccccc1 [ethylbenzene] + CCCCCCOCn1cc[n+](C)c1.O=S(=O)([N-]S(=O)(=O)C(F)(F)F)C(F)(F)F , which class would you pick?
Result :: middle band

Query :: Looking at Cc1ccccc1C [1,2-dimethylbenzene] + CCCCCCOCn1cc[n+](C)c1.O=S(=O)([N-]S(=O)(=O)C(F)(F)F)C(F)(F)F , which class would you pick?
Result :: middle band

Query :: Looking at CCO [ethanol] + CCCCCCOCn1cc[n+](COCCCCCC)c1.O=S(=O)([N-]S(=O)(=O)C(F)(F)F)C(F)(F)F , which class would you pick?
Result :: middle band

Query :: Looking at C=CCCCCCC [oct-1-ene] + CCCCCCOCn1cc[n+](COCCCCCC)c1.O=S(=O)([N-]S(=O)(=O)C(F)(F)F)C(F)(F)F , which class would you pick?
Result :: high band

Query :: Looking at Cc1ccccc1 [toluene] + CCCCCCOCn1cc[n+](COCCCCCC)c1.O=S(=O)([N-]S(=O)(=O)C(F)(F)F)C(F)(F)F , which class would you pick?
Result :: low band

Query :: Looking at C=CCCC [1-pentene] + CCCCCCOCn1cc[n+](COCCCCCC)c1.O=S(=O)([N-]S(=O)(=O)C(F)(F)F)C(F)(F)F , which class would you pick?
Result :: middle band

Query :: Looking at C#CCCCC [1-hexyne] + CCCCCCOCn1cc[n+](C)c1.O=S(=O)([N-]S(=O)(=O)C(F)(F)F)C(F)(F)F , which class would you pick?
Result :: middle band

Query :: Looking at Cc1ccccc1 [toluene] + CCCCCCOCn1cc[n+](C)c1.O=S(=O)([N-]S(=O)(=O)C(F)(F)F)C(F)(F)F , which class would you pick?
Result :: middle band

Query :: Looking at CCCCCCCC [octane] + CCCCCCOCn1cc[n+](C)c1.O=S(=O)([N-]S(=O)(=O)C(F)(F)F)C(F)(F)F , which class would you pick?
Result :: high band

Query :: Looking at C1CCCCC1 [cyclohexane] + CCCCCCOCn1cc[n+](C)c1.O=S(=O)([N-]S(=O)(=O)C(F)(F)F)C(F)(F)F , which class would you pick?
Result :: high band

Query :: Looking at CCOCC [diethyl ether] + CCCCCCOCn1cc[n+](COCCCCCC)c1.O=S(=O)([N-]S(=O)(=O)C(F)(F)F)C(F)(F)F , which class would you pick?
Result :: low band

Query :: Looking at C#CCCCCC [1-heptyne] + CCCCCCOCn1cc[n+](C)c1.O=S(=O)([N-]S(=O)(=O)C(F)(F)F)C(F)(F)F , which class would you pick?
Result :: middle band

Query :: Looking at C1CCCC1 [cyclopentane] + CCCCCCOCn1cc[n+](C)c1.O=S(=O)([N-]S(=O)(=O)C(F)(F)F)C(F)(F)F , which class would you pick?
Result :: high band

Query :: Looking at CCCCO [butan-1-ol] + CCCCCCOCn1cc[n+](C)c1.O=S(=O)([N-]S(=O)(=O)C(F)(F)F)C(F)(F)F , which class would you pick?
Result :: middle band

Query :: Looking at C=CCCCCC [1-heptene] + CCCCCCOCn1cc[n+](C)c1.O=S(=O)([N-]S(=O)(=O)C(F)(F)F)C(F)(F)F , which class would you pick?
Result :: high band

Query :: Looking at CCc1ccccc1 [ethylbenzene] + CCCCCCOCn1cc[n+](COCCCCCC)c1.O=S(=O)([N-]S(=O)(=O)C(F)(F)F)C(F)(F)F , which class would you pick?
Result :: low band

Query :: Looking at C=CCCC [1-pentene] + CCCCCCOCn1cc[n+](C)c1.O=S(=O)([N-]S(=O)(=O)C(F)(F)F)C(F)(F)F , which class would you pick?
Result :: high band

Query :: Looking at CCCOCCC [dipropyl ether] + CCCCCCOCn1cc[n+](C)c1.O=S(=O)([N-]S(=O)(=O)C(F)(F)F)C(F)(F)F , which class would you pick?
Result :: middle band

Query :: Looking at CCOCC [diethyl ether] + CCCCCCOCn1cc[n+](C)c1.O=S(=O)([N-]S(=O)(=O)C(F)(F)F)C(F)(F)F , which class would you pick?
Result :: middle band

Query :: Looking at COC(C)(C)C [2-methoxy-2-methylpropane] + CCCCCCOCn1cc[n+](C)c1.O=S(=O)([N-]S(=O)(=O)C(F)(F)F)C(F)(F)F , which class would you pick?
Result :: middle band

Query :: Looking at CCCCCCCCCC [decane] + CCCCCCOCn1cc[n+](C)c1.O=S(=O)([N-]S(=O)(=O)C(F)(F)F)C(F)(F)F , which class would you pick?
Result :: high band

Query :: Looking at Cc1ccc(C)cc1 [1,4-dimethylbenzene] + CCCCCCOCn1cc[n+](C)c1.O=S(=O)([N-]S(=O)(=O)C(F)(F)F)C(F)(F)F , which class would you pick?
Result :: middle band
